# Target desc: SARS-CoV-2 RBD protein (Sino Biological, Cat: 40592-V08B) (SARS-CoV-2, UniProt P0DTC2 319-541)
# Assay notes: BLI (Octet), mAb on Protein A sensor
Measure name: koff
Give the figure together with its unit, number first.

Task: Requested read-out: koff. Entry: CoV2-02 (antibody, V domains shown) VH: QVQMVQSGAEMKKPGASVKVSCKTSGYTFTNSYIHWVRQAPGQGLEWMGWINPISGGTNYAQKFQGRVTMTRDTSINTAYMELSRLRSDDTAVYYCARDRGDYDYGWGTSPFYFDYWGQGTLVSVSS VL: AIQMTQSPSSLSASVGDRVTITCRASQPISKYLNWYQQKPGKAPKLLIYAASSLQSGVPSSFSGSGFGTDFTLTISNLQPEDFATYYCQQSNGIPLTFGGGTKVDIK
Output: 0.000499 s⁻¹

Task: Suppose we examine the binder CoV2-17 (antibody, V domains shown) VH: QVELVESGGGLVKPGGSLRLSCAASGFTFSSYSMNWVRQAPGKGLEWVSSISSSSSYIYYADSVKGRFTISRDNAKNSLYLQMNSLRAEDTAVYYCARGNVDIVATGEVDAFDIWGQGTMVSVSS VL: QAVVTQPPSASGTLGQRVTISCSGSSSTIGSNYVYWYQQLPGTAPKLLIYRNNQRPSGVPDRFSGSKSGTSASLAISGLRSEDEADYYCAAWDDSLSGYVFGTGTQLTVL ; what koff value has been reported?
Output: 0.00101 s⁻¹

Task: Request the reported koff associated with CoV2-05 (antibody, V domains shown) VH: EVQLVESGGGVARPGGSLRLSCAASGFTFDDYGMSWVRQVPGKGLEWVAGINWNGERIGYADSVKGRFTISRDNAKNSLYLQMNSLRAEDTALYYCARPSGDYVAWYFNLWGRGTLVTVSS VL: QAALTQPRSVSGSPGQSVTISCTGTGSDVGPYKYVSWYQQHPGKAPKLMIYDVNERPSGVPDRFSGSKSGNTASLTISGLQAEDEADYYCGSYAGNNKWVFGGGTKLTVL
Output: 0.000602 s⁻¹
